Target: Histone-arginine methyltransferase CARM1 (Homo sapiens) (UniProt Q86X55)
Sequence (whole entry): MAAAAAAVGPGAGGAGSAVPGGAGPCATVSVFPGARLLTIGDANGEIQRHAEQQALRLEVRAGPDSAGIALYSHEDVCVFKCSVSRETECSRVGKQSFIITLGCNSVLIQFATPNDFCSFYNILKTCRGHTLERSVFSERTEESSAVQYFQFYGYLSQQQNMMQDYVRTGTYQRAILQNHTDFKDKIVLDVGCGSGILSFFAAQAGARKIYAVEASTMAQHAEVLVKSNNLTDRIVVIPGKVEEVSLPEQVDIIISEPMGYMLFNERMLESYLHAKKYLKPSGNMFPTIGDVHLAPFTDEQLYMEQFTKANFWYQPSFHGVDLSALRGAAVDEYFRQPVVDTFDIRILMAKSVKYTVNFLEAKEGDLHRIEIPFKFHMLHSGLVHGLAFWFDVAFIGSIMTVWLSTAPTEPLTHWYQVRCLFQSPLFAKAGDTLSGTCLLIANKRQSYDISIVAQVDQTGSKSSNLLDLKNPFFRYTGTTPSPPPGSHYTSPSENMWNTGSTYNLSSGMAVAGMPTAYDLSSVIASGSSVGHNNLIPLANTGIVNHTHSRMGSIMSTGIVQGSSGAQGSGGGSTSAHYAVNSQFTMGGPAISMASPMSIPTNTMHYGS
Assay: Inhibition of human PRMT4 using histone H3 as substrate and SAM as cofactor at 10 uM by radiometric HotSpot assay relative to control
Activity calls are given as the source filed them. The rule behind the calls is not given here.
observation-type: inhibition

Param item = `N=C(NCCCSC[C@H]1O[C@@H](n2cnc3c(N)ncnc32)[C@H](O)[C@@H]1O)Nc1cccc(-c2cccnc2)c1` ; retrieve measured inhibition. > 90%

// repeat for `Nc1ncnc2c1ncn2[C@@H]1O[C@H](CSCCNC(=O)NCc2ccc(-c3cccc(O)c3)cc2)[C@@H](O)[C@H]1O` and report 27%

// repeat for `N=C(NCCCSC[C@H]1O[C@@H](n2cnc3c(NCCCc4ccccc4)ncnc32)[C@H](O)[C@@H]1O)NCC1CCC1` and report Active

// repeat for `N=C(NCCSC[C@H]1O[C@@H](n2cnc3c(N)ncnc32)[C@H](O)[C@@H]1O)Nc1cccc(-c2ccc(C(F)(F)F)cc2)c1` and report > 90%

// repeat for `Nc1ncnc2c1ncn2[C@@H]1O[C@H](CSCCNC(=O)NCc2ccc3cnccc3c2)[C@@H](O)[C@H]1O` and report 27%

Next:
Param item = `N=C(NCCCSC[C@H]1O[C@@H](n2cnc3c(N)ncnc32)[C@H](O)[C@@H]1O)Nc1cccc(-c2n[nH]cc2C(F)(F)F)c1` ; retrieve measured inhibition. > 90%

// repeat for `Nc1ncnc2c1ncn2[C@@H]1O[C@H](CSCCNC(=O)NCCCc2ccccc2)[C@@H](O)[C@H]1O` and report 27%

// repeat for `Nc1ncnc2c1ncn2[C@@H]1O[C@H](CSCCNCc2cccc(-c3ccccc3O)c2)[C@@H](O)[C@H]1O` and report > 90%

// repeat for `N=C(NCCSC[C@H]1O[C@@H](n2cnc3c(N)ncnc32)[C@H](O)[C@@H]1O)Nc1cccc(-c2ccoc2)c1` and report > 90%

----------
Entries and their measured inhibition follow.
molecular target: Protein arginine N-methyltransferase 8 (Homo sapiens, UniProt Q9NR22); experiment: Inhibition of human PRMT8 using Histone H4 as substrate and SAM as cofactor at 10 uM by radiometric HotSpot assay relative to control
Sequence (Q9NR22 2-394 limits assumed): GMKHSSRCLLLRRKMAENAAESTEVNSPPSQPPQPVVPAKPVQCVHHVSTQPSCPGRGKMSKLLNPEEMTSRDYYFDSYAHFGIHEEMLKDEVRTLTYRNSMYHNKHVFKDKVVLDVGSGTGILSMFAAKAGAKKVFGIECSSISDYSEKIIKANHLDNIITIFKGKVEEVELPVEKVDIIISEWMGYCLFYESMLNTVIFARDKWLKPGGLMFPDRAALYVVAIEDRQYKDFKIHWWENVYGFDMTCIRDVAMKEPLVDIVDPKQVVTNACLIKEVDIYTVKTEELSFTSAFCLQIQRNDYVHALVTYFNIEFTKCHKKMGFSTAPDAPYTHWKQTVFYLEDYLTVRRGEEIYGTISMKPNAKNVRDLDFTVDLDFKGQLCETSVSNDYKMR

Sample answers from the record:
Param item = `N=C(NCCCSC[C@H]1O[C@@H](n2cnc3c(N)ncnc32)[C@H](O)[C@@H]1O)Nc1cccc(Br)c1` ; retrieve measured inhibition. > 95%

// repeat for `N=C(NCCCSC[C@H]1O[C@@H](n2cnc3c(N)ncnc32)[C@H](O)[C@@H]1O)Nc1cccc(-c2ccoc2)c1` and report > 95%

// repeat for `Nc1ncnc2c1ncn2[C@@H]1O[C@H](CSCCNCc2cccc(-c3ccoc3)c2)[C@@H](O)[C@H]1O` and report > 50%

Next:
Param item = `COc1cc2nc(-c3cccc([N+](=O)[O-])c3)nc(NCCSC[C@H]3O[C@@H](n4cnc5c(N)ncnc54)[C@H](O)[C@@H]3O)c2cc1OC` ; retrieve measured inhibition. < 50%
